- method description: Release in artificial intestinal juice
- Type: physicochemical
- applied conditions: t 15 min; permeable bag, amount calculated on 100 mg free base
endpoint label: Release in artificial intestinal juice, percent of the substance released (%)
// units = %; emit number, no label

Use the examples below as a reference point.
>>> value("CN(C)C[C@H]1CCCC[C@]1(O)c1cccc(O)c1.Cl [HCl-2]")
100.05
>>> value("CCCCCCCCCCCCCCCC(=O)O.CN(C)CC1CCCCC1(O)c1cccc(O)c1")
76.13
>>> value("CN(C)CC1CCCCC1(O)c1cccc(O)c1.O=C(O)C=Cc1ccccc1 (centres unmarked) [A-1]")
97.34

[in] Reported Release in artificial intestinal juice, percent of the substance released for CN(C)CC1CCCCC1(O)c1cccc(O)c1.CN(C)CC1CCCCC1(O)c1cccc(O)c1.O=C(O)C=CC(=O)O (centres unmarked) [E-2] : what is it?
[out] 96.19

[in] Given CN(C)CC1CCCCC1(O)c1cccc(O)c1.CN(C)CC1CCCCC1(O)c1cccc(O)c1.O=C(O)CCCCCCCCC(=O)O (centres unmarked) [F-1] , state its recorded Release in artificial intestinal juice, percent of the substance released.
[out] 99.15

[in] Quick one: Release in artificial intestinal juice, percent of the substance released for CN(C)CC1CCCCC1(O)c1cccc(O)c1.O=C(O)C=Cc1ccccc1 (centres unmarked) [A-2] ?
[out] 98.53

[in] Release in artificial intestinal juice, percent of the substance released lookup needed for CCCCCCCCCC(=O)O.CN(C)CC1CCCCC1(O)c1cccc(O)c1 (centres unmarked) [C-2] , thanks.
[out] 99.56

[in] # Release in artificial intestinal juice, percent of the substance released lookup, item CCCCCCCCCC(=O)O.CN(C)CC1CCCCC1(O)c1cccc(O)c1 (centres unmarked) [C-1]
[out] 99.92

[in] If you can, please state the reported Release in artificial intestinal juice, percent of the substance released value of CN(C)CC1CCCCC1(O)c1cccc(O)c1.CN(C)CC1CCCCC1(O)c1cccc(O)c1.O=C(O)CCCCCCCCC(=O)O (centres unmarked) [F-2] .
[out] 101.22

[in] Recorded Release in artificial intestinal juice, percent of the substance released of CN(C)CC1CCCCC1(O)c1cccc(O)c1.CN(C)CC1CCCCC1(O)c1cccc(O)c1.O=C(O)C=CC(=O)O (centres unmarked) [E-1] , please.
[out] 98.40

[in] What does the record list as Release in artificial intestinal juice, percent of the substance released for CN(C)C[C@H]1CCCC[C@]1(O)c1cccc(O)c1.Cl [HCl-1] ?
[out] 99.62

====

- method description: Release in artificial intestinal juice
- Format: physicochemical
- applied conditions: t 4 min; permeable bag, amount calculated on 100 mg free base
The following molecules are shown together with reported Release in artificial intestinal juice, percent of the substance released values.
# value in %; strip the unit string

>>> value("CCCCCCCCCCCCCCCC(=O)O.CN(C)CC1CCCCC1(O)c1cccc(O)c1")
31.60
>>> value("CN(C)CC1CCCCC1(O)c1cccc(O)c1.CN(C)CC1CCCCC1(O)c1cccc(O)c1.O=C(O)C=CC(=O)O (centres unmarked) [E-2]")
96.67
>>> value("CN(C)C[C@H]1CCCC[C@]1(O)c1cccc(O)c1.Cl [HCl-2]")
98.52
>>> value("CN(C)CC1CCCCC1(O)c1cccc(O)c1.O=C(O)C=Cc1ccccc1 (centres unmarked) [A-2]")
76.86
>>> value("CN(C)C[C@H]1CCCC[C@]1(O)c1cccc(O)c1.Cl [HCl-1]")
99.89
>>> value("CN(C)CC1CCCCC1(O)c1cccc(O)c1.CN(C)CC1CCCCC1(O)c1cccc(O)c1.O=C(O)CCCCCCCCC(=O)O (centres unmarked) [F-1]")
95.86

[in] For the molecule shown here, CN(C)CC1CCCCC1(O)c1cccc(O)c1.CN(C)CC1CCCCC1(O)c1cccc(O)c1.O=C(O)CCCCCCCCC(=O)O (centres unmarked) [F-2] , give the reported Release in artificial intestinal juice, percent of the substance released.
[out] 99.26

[in] Entry CN(C)CC1CCCCC1(O)c1cccc(O)c1.CN(C)CC1CCCCC1(O)c1cccc(O)c1.O=C(O)C=CC(=O)O (centres unmarked) [E-1] : reported Release in artificial intestinal juice, percent of the substance released = ?
[out] 100.25

[in] Param item = CN(C)CC1CCCCC1(O)c1cccc(O)c1.O=C(O)C=Cc1ccccc1 (centres unmarked) [A-1] ; retrieve measured Release in artificial intestinal juice, percent of the substance released.
[out] 74.11

[in] Reported Release in artificial intestinal juice, percent of the substance released for CCCCCCCCCC(=O)O.CN(C)CC1CCCCC1(O)c1cccc(O)c1 (centres unmarked) [C-2] : what is it?
[out] 99.12

[in] State the recorded Release in artificial intestinal juice, percent of the substance released for this entry: CCCCCCCCCC(=O)O.CN(C)CC1CCCCC1(O)c1cccc(O)c1 (centres unmarked) [C-1]
[out] 93.67

====

- method description: Release in artificial intestinal juice
- Type: physicochemical
- applied conditions: t 6 min; permeable bag, amount calculated on 100 mg free base
Each record here notes measured Release in artificial intestinal juice, percent of the substance released.
Number in %, nothing else.

>>> value("CCCCCCCCCCCCCCCC(=O)O.CN(C)CC1CCCCC1(O)c1cccc(O)c1")
55.36
>>> value("CN(C)C[C@H]1CCCC[C@]1(O)c1cccc(O)c1.Cl [HCl-2]")
100.41

[in] Returns the measured Release in artificial intestinal juice, percent of the substance released for the input compound. Input: CCCCCCCCCC(=O)O.CN(C)CC1CCCCC1(O)c1cccc(O)c1 (stereo not drawn) [C-1]
[out] 99.13

====

- method description: Determination of equilibrium solubilities in aqueous solutions at various pHs
- applied conditions: pH 7.4, aqueous buffer, thermodynamic from solid
endpoint label: solubility thermodynamic (mM)
# unit: mM | format: bare number

[in] Recorded solubility thermodynamic for CN(C)C[C@H]1CCCC[C@]1(O)c1cccc(O)c1.Cl [hydrochloride] , please?
[out] 867

====

- method description: Release in artificial intestinal juice
- Type: physicochemical
- applied conditions: t 2 min; permeable bag, amount calculated on 100 mg free base
endpoint label: Release in artificial intestinal juice, percent of the substance released (%)
Return type: number; implicit unit %.

[in] Bench note: what Release in artificial intestinal juice, percent of the substance released did CN(C)C[C@H]1CCCC[C@]1(O)c1cccc(O)c1.Cl [HCl-1] show?
[out] 99.16

[in] Which Release in artificial intestinal juice, percent of the substance released value belongs to CCCCCCCCCC(=O)O.CN(C)CC1CCCCC1(O)c1cccc(O)c1 (stereo not shown) [C-2] ?
[out] 92.62

[in] Release in artificial intestinal juice, percent of the substance released for CN(C)CC1CCCCC1(O)c1cccc(O)c1.CN(C)CC1CCCCC1(O)c1cccc(O)c1.O=C(O)C=CC(=O)O (stereo not shown) [E-1] ?
[out] 99.32

[in] Sample CN(C)CC1CCCCC1(O)c1cccc(O)c1.CN(C)CC1CCCCC1(O)c1cccc(O)c1.O=C(O)C=CC(=O)O (stereo not shown) [E-2] — what was its Release in artificial intestinal juice, percent of the substance released?
[out] 95.38

====

- method description: Release in artificial intestinal juice
- Type: physicochemical
- applied conditions: t 12 min; permeable bag, amount calculated on 100 mg free base
- Experimental: Investigations on release were carried out in a Sotax AT7 smart release apparatus with UV measurement (Perkin Elmer photometer). A vessel with Wood apparatus was used (for intrinsic release). A pressing of 0.5 cm^2 surface area (diameter 8 mm) was produced with a force of 200 N using approximately 100 mg of active ingredient. […] In this release experiment, the individual compounds were placed in a permeable bag in an amount in each case calculated on 100 mg of the free base. […]
Parameter: Release in artificial intestinal juice, percent of the substance released. Scope: all listed entries.
# answer = value followed by unit

Recorded results for 10 molecules are shown here.
>>> value("CCCCCCCCCC(=O)O.CN(C)CC1CCCCC1(O)c1cccc(O)c1 (centres unmarked) [C-2]")
"99.73%"
>>> value("CN(C)CC1CCCCC1(O)c1cccc(O)c1.O=C(O)C=Cc1ccccc1 (centres unmarked) [A-1]")
"96.63%"
>>> value("CN(C)CC1CCCCC1(O)c1cccc(O)c1.CN(C)CC1CCCCC1(O)c1cccc(O)c1.O=C(O)C=CC(=O)O (centres unmarked) [E-1]")
"99.42%"
>>> value("CN(C)C[C@H]1CCCC[C@]1(O)c1cccc(O)c1.Cl [HCl-2]")
"98.70%"
>>> value("CN(C)CC1CCCCC1(O)c1cccc(O)c1.CN(C)CC1CCCCC1(O)c1cccc(O)c1.O=C(O)CCCCCCCCC(=O)O (centres unmarked) [F-2]")
"101.24%"
>>> value("CN(C)CC1CCCCC1(O)c1cccc(O)c1.CN(C)CC1CCCCC1(O)c1cccc(O)c1.O=C(O)C=CC(=O)O (centres unmarked) [E-2]")
"96.45%"
>>> value("CCCCCCCCCCCCCCCC(=O)O.CN(C)CC1CCCCC1(O)c1cccc(O)c1")
"69.49%"
>>> value("CN(C)CC1CCCCC1(O)c1cccc(O)c1.O=C(O)C=Cc1ccccc1 (centres unmarked) [A-2]")
"95.42%"
>>> value("CCCCCCCCCC(=O)O.CN(C)CC1CCCCC1(O)c1cccc(O)c1 (centres unmarked) [C-1]")
"99.80%"
>>> value("CN(C)CC1CCCCC1(O)c1cccc(O)c1.CN(C)CC1CCCCC1(O)c1cccc(O)c1.O=C(O)CCCCCCCCC(=O)O (centres unmarked) [F-1]")
"98.55%"

Kindly review the next molecule as well.
[in] # input molecule: CN(C)C[C@H]1CCCC[C@]1(O)c1cccc(O)c1.Cl [HCl-1] ; wanted: its Release in artificial intestinal juice, percent of the substance released
[out] 100.66%
